system: Marburgvirus; assay: Antiviral activity against MARV musoke by high-content image analysis; type: functional, organism-based; conditions: Orthomarburgvirus
RECORDED_ENDPOINT: EC50 (µM)
Kindly answer with a numeric value in µM, unit omitted.

Form field, EC50 with Marburgvirus, item Nc1ncnc2c([C@@H]3N[C@H](CO)[C@@H](O)[C@H]3O)c[nH]c12 : 4.4
